Documented hERG current change (%, negative = inhibition) at 1uM across a set of molecules
biological target: human ether-à-go-go-related gene (hERG) potassium channel (human, UniProt Q12809); assay: primary screen, population patch clamp on CHO cells stably expressing hERG; higher = less effect of the substance
Sequence (Q12809 whole entry, looked up): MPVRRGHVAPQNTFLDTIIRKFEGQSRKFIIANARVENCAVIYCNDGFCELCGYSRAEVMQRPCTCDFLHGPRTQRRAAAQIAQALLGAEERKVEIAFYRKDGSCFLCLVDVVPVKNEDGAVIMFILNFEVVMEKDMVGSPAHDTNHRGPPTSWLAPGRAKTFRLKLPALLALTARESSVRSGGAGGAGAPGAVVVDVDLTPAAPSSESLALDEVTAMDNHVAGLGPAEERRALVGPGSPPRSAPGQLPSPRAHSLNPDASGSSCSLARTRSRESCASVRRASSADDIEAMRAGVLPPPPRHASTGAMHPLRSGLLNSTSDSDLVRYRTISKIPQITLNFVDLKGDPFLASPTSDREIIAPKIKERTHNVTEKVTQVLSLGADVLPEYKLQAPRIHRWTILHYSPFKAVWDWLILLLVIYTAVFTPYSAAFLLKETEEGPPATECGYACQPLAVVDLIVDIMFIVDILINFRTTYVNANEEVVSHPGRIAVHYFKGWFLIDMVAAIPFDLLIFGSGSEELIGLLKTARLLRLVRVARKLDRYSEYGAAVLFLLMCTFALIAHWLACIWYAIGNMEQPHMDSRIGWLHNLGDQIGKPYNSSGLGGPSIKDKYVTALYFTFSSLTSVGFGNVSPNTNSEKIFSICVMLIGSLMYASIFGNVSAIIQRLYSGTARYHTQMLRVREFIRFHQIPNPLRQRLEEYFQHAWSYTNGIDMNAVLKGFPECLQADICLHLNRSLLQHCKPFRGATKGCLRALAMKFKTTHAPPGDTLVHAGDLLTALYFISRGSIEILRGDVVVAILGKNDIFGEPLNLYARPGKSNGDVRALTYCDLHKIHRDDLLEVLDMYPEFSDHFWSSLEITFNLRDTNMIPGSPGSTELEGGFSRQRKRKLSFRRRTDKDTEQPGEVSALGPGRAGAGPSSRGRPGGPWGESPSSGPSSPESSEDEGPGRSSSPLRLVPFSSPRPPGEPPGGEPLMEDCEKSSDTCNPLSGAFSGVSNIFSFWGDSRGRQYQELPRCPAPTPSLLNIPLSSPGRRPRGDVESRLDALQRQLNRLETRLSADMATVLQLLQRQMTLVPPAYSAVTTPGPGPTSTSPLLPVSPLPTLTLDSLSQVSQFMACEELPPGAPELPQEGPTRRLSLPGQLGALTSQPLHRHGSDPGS
The whole screen tested about 310,000 compounds, of which about 2,200 (0.71%) showed an effect of 50% or more. The effect is printed as a negative number. Many of the other results were omitted from the sample, so strong results are more common in it than they were.
REPORTED ENDPOINT: hERG current change (%, negative = inhibition) at 1uM (%)

[
  {
    "MOLECULE": "CCn1c(/N=C/c2ccc(OC)cc2O)nc2ccccc21",
    "MEASURED NUMBER": 14
  },
  {
    "MOLECULE": "Cc1cccc(-n2c(/C=C/c3ccc([N+](=O)[O-])o3)nc3ccccc3c2=O)c1",
    "MEASURED NUMBER": 2.06
  },
  {
    "MOLECULE": "CCOC(=O)c1oc2ccccc2c1CN1CCOCC1.Cl",
    "MEASURED NUMBER": -5.9
  },
  {
    "MOLECULE": "COc1cccc2c1OCC/C2=N\\NC(=O)COc1ccccc1C",
    "MEASURED NUMBER": -13.9
  },
  {
    "MOLECULE": "CC(C)C[C@@H](CSc1ccc(Br)cc1)N1CCN(CCc2ccccc2)CCC1=O",
    "MEASURED NUMBER": -28.9
  },
  {
    "MOLECULE": "O=C(c1ccc(C(F)(F)F)cc1)C1CCCN(C2CCSCC2)C1 (centres unmarked)",
    "MEASURED NUMBER": -64.4
  },
  {
    "MOLECULE": "CC(C)C[C@@H](COc1ccccc1)N1CCN(Cc2ccccc2)CCC1=O",
    "MEASURED NUMBER": -4.6
  },
  {
    "MOLECULE": "NC(=O)CN1C(=O)NC2(CCCc3sccc32)C1=O (centres unmarked)",
    "MEASURED NUMBER": 17
  },
  {
    "MOLECULE": "COC(=O)COc1ccc(NC(=O)C(c2ccccc2)c2ccccc2)cc1",
    "MEASURED NUMBER": 6.63
  },
  {
    "MOLECULE": "CN1C(=O)/C(=C\\c2cc(Br)cs2)c2ccccc21",
    "MEASURED NUMBER": 12.7
  },
  {
    "MOLECULE": "CCCN1CCC(=O)N([C@H](COc2ccccc2)Cc2ccccc2)CC1",
    "MEASURED NUMBER": -52.4
  },
  {
    "MOLECULE": "CCOC(=O)c1oc2ccccc2c1CN1CCCCC1.Cl",
    "MEASURED NUMBER": -9.66
  },
  {
    "MOLECULE": "O=C(c1ccc(Cl)cc1)C1CCCN(C2CCSCC2)C1 (centres unmarked)",
    "MEASURED NUMBER": -63.4
  },
  {
    "MOLECULE": "COc1cc(/C=N/NC(=S)NCC2CCCO2)cc(OC)c1OC (centres unmarked)",
    "MEASURED NUMBER": 0.431
  },
  {
    "MOLECULE": "CCCN1CCC(=O)N([C@H](CSc2ccccc2)Cc2ccccc2)CC1",
    "MEASURED NUMBER": -48.9
  },
  {
    "MOLECULE": "CC(C)(C)c1ccc(C(=O)C2CCCN(C3CCC3)C2)cc1 (centres unmarked)",
    "MEASURED NUMBER": 10.7
  },
  {
    "MOLECULE": "CC(Nc1nc(N2CCOCC2)nc2ccccc12)c1ccccc1 (centres unmarked)",
    "MEASURED NUMBER": -52.7
  }
]

* * *

biological target: human ether-à-go-go-related gene (hERG) potassium channel (human); assay: primary screen, population patch clamp on CHO cells stably expressing hERG; higher = less effect of the substance
Hit rate of the full screen: of about 310,000 compounds, about 2,200 (0.71%) showed an effect of 50% or more. The effect is printed as a negative number. This excerpt belongs to a sample that is enriched for strong results.
REPORTED ENDPOINT: hERG current change (%, negative = inhibition) at 1uM (%)

[
  {
    "COMPOUND": "COc1ccc(CNC(=O)CSc2n[nH]c(N)n2)cc1OC",
    "MEASURED NUMBER": -73.4
  },
  {
    "COMPOUND": "CC1=CC2=NC(=O)CC(C)(C(=O)N(CC(=O)NC(C)(C)C)Cc3cccs3)N2C=C1 (centres unmarked)",
    "MEASURED NUMBER": -2.79
  },
  {
    "COMPOUND": "COc1ccc(CCN(C)C2CCCN(S(=O)(=O)N(C)C)C2)cc1OC (centres unmarked)",
    "MEASURED NUMBER": 8.71
  },
  {
    "COMPOUND": "CCCc1cc(C(=O)N2CCCC(N3CCN(c4ccccc4C)CC3)C2)n(C)n1 (centres unmarked)",
    "MEASURED NUMBER": 3.48
  },
  {
    "COMPOUND": "COc1ccc(S(=O)(=O)N2CCCC(N(C)CCc3ccccc3)C2)cc1OC (centres unmarked)",
    "MEASURED NUMBER": -26.5
  },
  {
    "COMPOUND": "Cc1ccc2[nH]c3c(=O)n(CCN4CCNCC4)cnc3c2c1",
    "MEASURED NUMBER": 18.5
  },
  {
    "COMPOUND": "O=C(NNC(=S)Nc1ccc(F)cc1)c1ccccc1OC(F)F",
    "MEASURED NUMBER": 6.53
  },
  {
    "COMPOUND": "CCC1CCCN1Cn1cnc2c([nH]c3ccc(C)cc32)c1=O (centres unmarked)",
    "MEASURED NUMBER": -54.9
  },
  {
    "COMPOUND": "COc1cccc(C(=O)NCCCNC(=O)c2cccc(OC)c2)c1",
    "MEASURED NUMBER": 12.4
  },
  {
    "COMPOUND": "O=C(COc1coc(CN2CCN(c3ccccc3)CC2)cc1=O)Nc1ccccc1",
    "MEASURED NUMBER": 10.3
  },
  {
    "COMPOUND": "CCOC(=O)/C(C#N)=N/Nc1ccccc1C#N",
    "MEASURED NUMBER": 11.2
  },
  {
    "COMPOUND": "COc1ccc(OC)c(NC(=O)C2CCN(c3cc(-c4ccccc4)nc4ncnn34)CC2)c1",
    "MEASURED NUMBER": -2.67
  },
  {
    "COMPOUND": "Cn1c(=O)c(C(=O)CN2CCCCC2)c(N)n(Cc2ccccc2)c1=O",
    "MEASURED NUMBER": 6.17
  },
  {
    "COMPOUND": "Cc1ccccc1C(=O)c1cccn1CC(=O)NCCCN1CCCCC1",
    "MEASURED NUMBER": 0.894
  },
  {
    "COMPOUND": "CC(=O)c1ccc(S(=O)(=O)N2CCCC(N(C)CCc3ccccn3)C2)cc1 (centres unmarked)",
    "MEASURED NUMBER": -44.4
  },
  {
    "COMPOUND": "Cc1ccc(S(=O)(=O)NCCC(=O)N2CCCCCCC2)cc1",
    "MEASURED NUMBER": 22.3
  },
  {
    "COMPOUND": "Cc1ccc(S(=O)(=O)c2c(C)nn(-c3ccccc3)c2OC(=O)c2ccco2)cc1",
    "MEASURED NUMBER": 5.81
  },
  {
    "COMPOUND": "Cc1ccccc1C(=O)c1cccn1CC(=O)NCCCN1CCc2ccccc2C1",
    "MEASURED NUMBER": -70
  },
  {
    "COMPOUND": "CCC1CCCN1Cn1cnc2c([nH]c3ccc(Cl)cc32)c1=O (centres unmarked)",
    "MEASURED NUMBER": -70.9
  },
  {
    "COMPOUND": "O=C(Cn1cccc1C(=O)c1ccccc1)NCCCN1CCc2ccccc2C1",
    "MEASURED NUMBER": -41.7
  },
  {
    "COMPOUND": "COc1ccc(CCN(C)C2CCCN(S(=O)(=O)c3ccc(C)cc3)C2)cc1OC (centres unmarked)",
    "MEASURED NUMBER": -82.1
  },
  {
    "COMPOUND": "CN(C)S(=O)(=O)N1CCC(Oc2cccc(C(=O)NC3CCCCC3)c2)CC1",
    "MEASURED NUMBER": 2.87
  },
  {
    "COMPOUND": "CN1CCN(CCCNC(=O)c2ccc(CSCc3cccc(Cl)c3)o2)CC1",
    "MEASURED NUMBER": 1.54
  },
  {
    "COMPOUND": "Cc1ccc2[nH]c3c(=O)n(CCCN4CCN(C)CC4)cnc3c2c1",
    "MEASURED NUMBER": -12.6
  },
  {
    "COMPOUND": "Cc1ccccc1N1CCN(C2CCCN(C(=O)c3cc(CC(C)C)nn3C)C2)CC1 (centres unmarked)",
    "MEASURED NUMBER": 5.95
  },
  {
    "COMPOUND": "Cc1nc2c(C)cccn2c1/C(O)=C1\\C(=O)C(=O)N(CCN(C)C)C1c1ccco1 (centres unmarked)",
    "MEASURED NUMBER": 11.2
  },
  {
    "COMPOUND": "COc1ccc(CCNC(=O)CSc2n[nH]c(N)n2)cc1OC",
    "MEASURED NUMBER": 18.1
  },
  {
    "COMPOUND": "Cc1ccc(C)c(N2CCN(CCCNC(=O)Cn3cccc3C(=O)c3ccccc3C)CC2)c1",
    "MEASURED NUMBER": -22.1
  },
  {
    "COMPOUND": "CCN(CC)c1ccc2ccc(=O)oc2c1",
    "MEASURED NUMBER": 7.92
  }
]
